# Tested on: NCI-H522 lung
# MEASUREMENT_NOTES: NCI-60 one-dose screen, 48 h (100 = growth as untreated, 0 = no growth, -100 = all killed)
# PROTOCOL_CONDITIONS: 10 µM unless noted
The panel holds about 83,000 compounds, 20% with a hit somewhere; the sample as a whole holds those more often.
growth strictly less than -10% = 1. Otherwise 0.

In [3]: df
Out[3]:
                                   compound  class_name
0  N#CC1=C(N)Oc2nc[nH]c(=O)c2C1c1cccs1 (stereo not given)           0
1  CCN1CCN(Cc2ccc(NC(=O)c3nc4ccc5[nH]ncc5c4c4c3CCCC4)cc2C(F)(F)F)CC1           1
2        CCOCC(O)(c1ccc(Cl)cc1)c1ccc(Cl)cc1           0
3  O=C(c1ccc(C(F)(F)F)c(Cl)c1)N(Cc1ccc(Cl)cc1)c1ccc(-c2cc(C(F)(F)F)[nH]n2)c(O)c1           0
4     O=C(Nc1cnc(C(F)(F)F)cn1)c1cc(Cl)ccc1O           1
5  CC(C)(C)CC(C)(C)NCc1cc(C(C)(C)C)cc(CNC(C)(C)CC(C)(C)C)c1O           0
6   O=c1cc(-c2ccc3c(c2)OCCO3)oc2cc(Cl)ccc12           1
7   O=C(C=P(c1ccccc1)(c1ccccc1)c1ccccc1)CCl           1
8                O=C(C(=O)c1cccnc1)c1cccnc1           0
9  CC1CCN(Cc2ccc(NC(=O)c3cc4ccc5cccnc5c4[nH]3)cc2)CC1           0

---

# Test system: IGROV1 ovarian
# MEASUREMENT_NOTES: NCI-60 one-dose screen, 48 h
# PROTOCOL_CONDITIONS: 10 µM unless noted
Compounds without any hit were thinned out: in the full panel of roughly 83,000, 20% have a hit. Calls of active or inactive are those of the source. Rule for the calls: active = growth percent below 10; inactive = the rest.
Outcomes: active, inactive

COMPOUND	CLASS_NAME
COc1cc(C2CC(c3cccc(Nc4ccnc5cc(Cl)ccc45)c3)=NN2c2ccc(Cl)cc2)cc(OC)c1OC (configuration not stated)	inactive
Nc1ncnc2c1N=C(c1ccc(F)cc1)CC(c1sc(Cl)nc1Cl)N2 (configuration not stated)	inactive
O=C(CI)NCCNc1cccc2c(S(=O)(=O)O)cccc12	inactive
O=C(/C=C/c1ccccc1)C(Br)C(Br)c1ccccc1 (configuration not stated)	active
CC1(C)CC[C@]2(C(=O)N3CCNCC3)CC[C@]3(C)C(=CC[C@@H]4[C@@]5(C)CCC(=O)C(C)(C)[C@@H]5CC[C@]43C)[C@@H]2C1	inactive
CCCCNCC(O)c1cc2c(Cl)cc(Cl)cc2c2cc(C(F)(F)F)ccc12 (configuration not stated)	active
NC(=O)Nc1ccc2ncnc(Nc3cccc(O)c3)c2c1	inactive
Clc1ccc(Nc2ncnc3c2sc2ncccc23)cc1	inactive
COc1ccc(-c2nc3ccc(Cc4ccc5nc(-c6ccc(OC)cc6)[nH]c5c4)cc3[nH]2)cc1	active
O=Cc1ccc2nc(C(Cl)(Cl)Cl)ccc2c1	inactive
COc1cc(Nc2ccnc3ccc(Br)cc23)cc(OC)c1OC	inactive
O=C(Nc1ccc(Cl)c(C(F)(F)F)c1)c1ccc(Nc2ccc(Cl)nn2)cc1	inactive
COc1ccc(-n2nc(C(=O)NCC(=O)Nc3nc4cc(OC)ccc4s3)c3ccccc3c2=O)cc1	active
Cc1ccc(NC(=O)c2[nH]c(SCCN(C)C)nc2-c2ccc(F)cc2)cc1C#Cc1cnc2cccnn12	inactive
Cc1[nH]n(C(=O)c2ccncc2)c(=O)c1N=Nc1ccc(O)c(C(=O)O)c1	inactive
N#Cc1c(N)c(C(=O)c2ccc3c(c2)OCCO3)n2c1CCCC2	inactive
NCCCOc1cc2ccccc2cc1C(=O)NCCCOc1cc2ccccc2cc1C(=O)Nc1ccc(Cl)cc1O	active
CCCCn1c(-c2ccc(F)cc2)nc2cc(OC)c(OC)cc2c1=O	inactive
C#CC[C@@H]1C[C@]2(C)[C@H]3CC[C@@H]4[C@H]5C(C(=C)C)CC[C@]5(C(=O)NCCCCCCCCN)CC[C@@]4(C)[C@]3(C)CC[C@H]2C(C)(C)[C@H]1OC(C)=O (some centres not stated)	inactive
CCc1oc2ccccc2c1C(=O)c1cc(I)c(O)c(I)c1	inactive
C[C@@H]1C[C@H](N)C[C@H](c2ccncc2NC(=O)c2ccc(F)c(-c3c(F)cccc3F)n2)C1	inactive
CC(C)=CCC[C@H](C)c1ccc(C)c2c1OCN(CCO)C2	inactive
COc1ccc(NC(=O)c2ccc(C(F)(F)F)nc2Nc2ccc(Cl)cc2C)cc1Cl	inactive
Cc1cc(C)cc(NC(=O)Cn2nncc2CN2C(=O)CSC2=O)c1	inactive
COc1ccc(-c2[nH]nc(N)c2-c2cc(OC)c(OC)c(OC)c2)cc1	active
Cc1ccc2cc3c(NC(=O)c4cccnc4)nn(C)c3nc2c1	inactive
COc1ccc(/C=C/C(=O)c2ccc(NC(=O)CSc3nnc(-c4ccc(Cl)cc4)n3-c3ccccc3)cc2)cc1	inactive
Cn1nc(C(F)(F)F)cc1-c1c[nH]c(OCc2ccc(Cl)cc2)c(-c2ccc(Cl)c(C(F)(F)F)c2)c1=O	inactive
CC(CN1CCN(CCOCCO)CC1)CN1c2ccccc2Sc2ccc(Cl)cc21 (configuration not stated)	inactive
COc1cc2c(cc1C)NC(=O)/C2=C\c1c[nH]c2ccccc12	active
Clc1ncnc2scc(C3COc4ccccc4O3)c12 (configuration not stated)	inactive
CC1=C(C(=O)Nc2ccc(F)cc2)C(c2ccc(Cl)cc2)C2=C(CC(C)(C)CC2=O)N1 (configuration not stated)	inactive
CCCc1n(Cc2ccc3ccccc3c2)c2ccccc2[n+]1Cc1ccc2ccccc2c1	active
CC(=O)O[C@H]1[C@H](CC#CC#CC[C@@H]2C[C@]3(C)[C@H]4CC=C5[C@H]6[C@@H](C)[C@H](C)CC[C@]6(C(=O)NCCN(CCN)CCN)CC[C@@]5(C)[C@]4(C)CC[C@H]3C(C)(C)[C@H]2OC(C)=O)C[C@]2(C)[C@H]3CC=C4[C@H]5[C@@H](C)[C@H](C)CC[C@]5(C(=O)NCCN(CCN)CCN)CC[C@@]4(C)[C@]3(C)CC[C@H]2C1(C)C	inactive
O=c1c2sc3ccccc3c2nnn1-c1ccc(F)c(Cl)c1	inactive
COc1ccc(/C=C/C(=O)c2ccc(NC(=O)CSc3nnc(-c4ccc(OC)cc4)n3-c3ccccc3)cc2)cc1	inactive
Clc1cc(Br)ccc1-c1ccc(CNCC2CCNCC2)o1	inactive

---

# System: SN12C renal
# MEASUREMENT_NOTES: NCI-60 one-dose screen, 48 h (100 = growth as untreated, 0 = no growth, -100 = all killed)
# PROTOCOL_CONDITIONS: 10 µM unless noted
The panel holds about 83,000 compounds, 20% with a hit somewhere; the sample as a whole holds those more often.
QUANTITY: growth (%)

>>> print(df.to_string())
                                 smiles_text  units_text  value
 0        O=[N+]([O-])c1cccc([I+]c2ccccc2)c1           %   52.4
 1                      COc1ccc(Br)c2ccccc12           %    112
 2  O=C(CS)OCC(COC(=O)CS)(COC(=O)CS)COC(=O)CS           %   90.2
 3  COc1c(B(O)O)cccc1-c1nc2ccc3[nH]ncc3c2c2c1CCCC2           %   23.7
 4     CCN(CC)c1ccc(C(=N)c2ccc(N(C)C)cc2)cc1           %   24.8
 5  COc1cc(/C=C/C(=O)c2c(C)nc3ccccc3c2C)ccc1OCCCOc1cc2c(cc1OC)C(=O)N1CCC[C@H]1C=N2           %   10.2
 6  FC1(F)CCN(Cc2c[nH]c3cc(Cl)ccc23)C[C@H]1CCc1ccccc1           %   54.3
 7  CCOc1ccc([C@@H]2[C@@H](Oc3ccccc3)C(=O)N2c2cc(OC)c(OC)c(OC)c2)cc1           %   31.4
 8       COc1ccc(C(=O)c2c(N)nc3n2CCCC3)cc1OC           %    109
 9  COc1ccc(/C=C2\N=C(c3cccnc3)N(c3ccccc3)NC2=O)cc1           %    105
10  COc1ccc(-c2cnc3ccnn3c2-c2cc(OC)c(OC)c(OC)c2)cc1           %     42

---

# Test system: CAKI-1 renal
# MEASUREMENT_NOTES: NCI-60 one-dose screen, 48 h (100 = growth as untreated, 0 = no growth, -100 = all killed)
# PROTOCOL_CONDITIONS: 10 µM unless noted
This is part of a sample that, as a whole, favours compounds with a hit. Of some 83,000 tested, about 20% had one in any assay.
Entries get a class label from measured growth. See ranges: low: < 70%; intermediate: ≥ 70% and < 90%; high: ≥ 90%

COMPOUND	CLASS_NAME
Cc1cc2nc3c(=O)[nH]c(=O)nc-3n(CC=O)c2cc1C	low
C=CC[C@]1(O)CC[C@H]2[C@@H]3CCc4cc(O)ccc4[C@H]3CC[C@@]21C	high
c1ccc2c(Cc3csc4ccccc34)csc2c1	intermediate
COc1ccc(C2C3CCc4ccccc4C3=NN2C(=O)c2cc(OC)c(OC)c(OC)c2)cc1O (stereo unspecified)	high
COc1ccc(-c2nn(-c3cccc(Cl)c3)cc2/C=C2\C(=N)N(c3ccccc3)N=C2N)cc1	low
Cc1nc2n[nH]c(N)c2nc1C	high
CCc1ccc(Nc2cc(C)c3ccc(O)cc3n2)cc1	low
NCCCOc1cc2ccccc2cc1C(=O)NCCCOc1cc2ccccc2cc1C(=O)Nc1ccc(Cl)cc1O	low
O=C1C=CC(=O)N1CO	high
C[C@@H](C[C@H](CC1CC1)c1ccccc1)c1ccc2ccccc2c1	high
COC1=CC(c2ccc[nH]2)=N/C1=C\c1[nH]c(C)c(C(=O)CCCCCCCCC(=O)O[C@H]2CC[C@H]3C4CCc5cc(O)ccc5C4CC[C@]23C)c1C (stereo partly specified)	low
Cc1nc2ccc(Nc3nc(N4CCOCC4)nc(N4CCN(C)CC4)n3)cc2n1Cc1ccccc1	high
CC(C)N1CCN(c2ccncc2S(=O)(=O)N2CCN(C)CC2)CC1	high
COc1cccc2nc(Nc3cccc(NC(=O)c4cc(N5CCOCC5)cc(C(F)(F)F)c4)c3)ccc12	low
C#CC[C@@H]1C[C@]2(C)[C@H]3CC=C4[C@H]5CC(C)(C)CC[C@]5(C(=O)NCCCCN)CC[C@@]4(C)[C@]3(C)CC[C@H]2C(C)(C)[C@H]1OC(C)=O	low
Fc1ccc2c(CN3CCO[C@H](COc4cccc(Cl)c4)C3)c[nH]c2c1	low
COc1ccc(Nc2ncnc3c2sc2nc(C)cc(C)c23)cc1	high
Cc1nn(-c2ccc(Cl)cc2)c(=O)n1CCN1CCOCC1	intermediate
C=C(C)C1CCC2(C(=O)O)CCC3(C)C(CCC4C5(C)CCC(O)C(C)(C)C5CCC43C)C12 (stereo unspecified)	low
COc1ccc(/C=C2\N=C(c3cccnc3)N(c3ccccc3)NC2=O)cc1	high
COc1cc(C2CC(c3ccc(Cl)cc3)=NN2C=O)ccc1OS(=O)(=O)c1ccc(C)cc1 (stereo unspecified)	intermediate
Cc1cc(-c2nnc(/C=C/c3ccc4c(c3)OCO4)o2)n[nH]1	low
O=C(Cc1ccc(Nc2ccnc(C(F)(F)F)c2)cc1)N/N=C/c1ccccc1O	low
COc1cc(OC)cc(-c2n/c(=C\c3c(O)[nH]c4ccc(Cl)cc34)cc3c2=Nc2ccccc2-3)c1	intermediate
COc1ccc(OC)c(Nc2nc(-c3c(C)nc4sccn34)cs2)c1	intermediate
Oc1ccc(Cl)cc1-c1cc(-c2ccccc2Cl)[nH]n1	intermediate
COc1cc(-c2nc(-c3nc4cc(C(=O)c5ccccc5)ccc4[nH]3)cc3c2[nH]c2ccccc23)cc(OC)c1OC	intermediate
COc1cc(C(=O)/C=C/c2cn(-c3ccccc3)nc2-c2cccc(Nc3ccnc4cc(Cl)ccc34)c2)cc(OC)c1OC	high
CCOC(C)(c1ccc(Cl)cc1)C1CCNCC1 (stereo unspecified)	high
NC(=Nc1ccccc1)SCCCSC(N)=Nc1ccccc1	intermediate
COc1cc(NCCCCC(C)N)c2nccc(C)c2c1 (stereo unspecified)	high
COc1cc(C2Nc3ccccc3S2)cc(CN2CCOCC2)c1O (stereo unspecified)	intermediate
COc1cc(CN2CCO[C@H](COc3cccc(F)c3)C2)ccc1Cl	low
O=C(Nc1ccc2[nH]c3ccccc3c2c1)c1ccccc1Cl	low
CCOC(CN1CCN(CC(C)C(=O)c2ccccc2)CC1)c1ccccc1 (stereo unspecified)	high
CCN(CC)CCCCCCCNc1cc(OC)cc2c(C)ccnc12	high
O=C(/C=C/c1ccccc1)C(Br)C(Br)c1ccccc1 (stereo unspecified)	low
CC1=C(C(=O)Nc2ccc(F)cc2)C(c2ccc(Cl)cc2)C2=C(CC(C)(C)CC2=O)N1 (stereo unspecified)	intermediate
O=C(c1ccccc1)N(CCCCl)C(=O)N(CCCCl)C(=O)c1ccccc1	intermediate
